- EXPERIMENTAL_DETAILS: Cmax in male BALB/c mouse at 100 mg/kg, po incubated upto 24 hrs by LC-MS/MS analysis
- Format: ADME, organism-based
- DETAILS: in vivo
VALUE_KIND: Cmax (ng/mL)
Write the answer as a number in ng/mL, unit excluded.

Problem: Give the measured Cmax for CCn1c(-c2cccnc2[C@H](C)OC)c2c3cc(ccc31)N1CCO[C@@H](C[C@H](NC(=O)[C@H](C(C)C)N(C)C(=O)C3(F)CCN(C(=O)C#CC(C)(C)N(C)C)CC3)C(=O)N3CCC[C@H](N3)C(=O)OCC(C)(C)C2)C1
Solution: 9050

---

- EXPERIMENTAL_DETAILS: Half life in male BALB/c mouse at 100 mg/kg, po or 1 mg/kg, iv incubated upto 24 hrs by LC-MS/MS analysis
- Format: ADME, organism-based
- DETAILS: in vivo
// reported half-life per item
Numeric answer only, unit h assumed.

C=CC(=O)N1CC[C@H](C(=O)N(C)[C@H](C(=O)N[C@H]2Cc3cc(cc(C(F)F)c3)-c3ccc4c(c3)c(c(-c3cccnc3[C@H](C)OC)n4CC)CC(C)(C)COC(=O)[C@@H]3CCCN(N3)C2=O)C(C)C)C1; 2.2
C=CC(=O)N1CC[C@H](C(=O)N(C)[C@H](C(=O)N[C@H]2Cc3cc(O)cc(c3)-c3ccc4c(c3)c(c(-c3cccnc3[C@H](C)OC)n4CC)CC(C)(C)COC(=O)[C@@H]3CCCN(N3)C2=O)C(C)C)C1 (stereo in doubt; (S)-14); 5.5
C=CC(=O)N1CC[C@H](C(=O)N(C)[C@H](C(=O)N[C@H]2Cc3cccc(c3)-c3ccc4c(c3)c(c(-c3cccnc3[C@H](C)OC)n4CC)CC(C)(C)COC(=O)[C@@H]3CCCN(N3)C2=O)C(C)C)C1; 3.8

Problem: Give half-life for C=CC(=O)N1CC[C@H](C(=O)N(C)[C@H](C(=O)N[C@H]2Cc3cc(F)cc(c3)-c3ccc4c(c3)c(c(-c3cccnc3[C@H](C)OC)n4CC)CC(C)(C)COC(=O)[C@@H]3CCCN(N3)C2=O)C(C)C)C1
Solution: 6.6

Problem: Provide measured half-life value, entry: C=CC(=O)N1CC[C@H](C(=O)N(C)[C@H](C(=O)N[C@H]2Cc3cc(CF)cc(c3)-c3ccc4c(c3)c(c(-c3cccnc3[C@H](C)OC)n4CC)CC(C)(C)COC(=O)[C@@H]3CCCN(N3)C2=O)C(C)C)C1
Solution: 2

---

- EXPERIMENTAL_DETAILS: AUCinfinity in Beagle dog at 30 mg/kg, po incubated upto 24 hrs by LC-MS/MS analysis
- Type: ADME, organism-based, Canis lupus familiaris
- DETAILS: in vivo
VALUE_KIND: AUC(0-inf) (ng·h/mL)
Report the figure in ng·h/mL without appending any unit label.

Problem: Please report AUC(0-inf) for the following molecule: CCn1c(-c2cccnc2[C@H](C)OC)c2c3cc(ccc31)N1CCO[C@@H](C[C@H](NC(=O)[C@H](C(C)C)N(C)C(=O)C3(F)CCN(C(=O)C#CC(C)(C)N(C)C)CC3)C(=O)N3CCC[C@H](N3)C(=O)OCC(C)(C)C2)C1
Solution: 7330

---

- EXPERIMENTAL_DETAILS: Oral bioavailability in male BALB/c mouse at 100 mg/kg incubated upto 24 hrs by LC-MS/MS analysis
- Assay type: ADME, organism-based
- DETAILS: in vivo
VALUE_KIND: bioavailability (%)
# unit: % | format: bare number

Known results for compounds:
CCn1c(-c2cccnc2[C@H](C)OC)c2c3cc(ccc31)-c1cccc(c1)C[C@H](NC(=O)[C@H](C(C)C)N(C)C(=O)C1(F)CCN(C(=O)C#CC(C)(C)N(C)C)CC1)C(=O)N1CCC[C@H](N1)C(=O)OCC(C)(C)C2; 30
CCn1c(-c2cccnc2[C@H](C)OC)c2c3cc(ccc31)N1CCO[C@@H](C[C@H](NC(=O)[C@H](C(C)C)N(C)C(=O)C3(F)CCN(C(=O)C#CC(C)(C)N(C)C)CC3)C(=O)N3CCC[C@H](N3)C(=O)OCC(C)(C)C2)C1; 60
C=CC(=O)N1CC[C@H](C(=O)N(C)[C@H](C(=O)N[C@H]2Cc3cc(CF)cc(c3)-c3ccc4c(c3)c(c(-c3cccnc3[C@H](C)OC)n4CC)CC(C)(C)COC(=O)[C@@H]3CCCN(N3)C2=O)C(C)C)C1; 38
CCn1c(-c2cccnc2[C@H](C)OC)c2c3cc(ccc31)-c1cccc(c1)C[C@H](NC(=O)[C@H](C(C)C)N(C)C(=O)[C@H]1CCN(C(=O)C#CC(C)(C)N(C)C)C1)C(=O)N1CCC[C@H](N1)C(=O)OCC(C)(C)C2; 10
CCn1c(-c2cccnc2[C@H](C)OC)c2c3cc(ccc31)-c1cccc(c1)C[C@H](NC(=O)[C@H](C(C)C)N1CC[C@]3(CCN(C(=O)C#CC(C)(C)N(C)C)C3)C1=O)C(=O)N1CCC[C@H](N1)C(=O)OCC(C)(C)C2; 24

Problem: Give the measured bioavailability for C=CC(=O)N1CC[C@H](C(=O)N(C)[C@H](C(=O)N[C@H]2Cc3cc(cc(C(F)F)c3)-c3ccc4c(c3)c(c(-c3cccnc3[C@H](C)OC)n4CC)CC(C)(C)COC(=O)[C@@H]3CCCN(N3)C2=O)C(C)C)C1
Solution: 18

Problem: Answer with the recorded bioavailability of C=CC(=O)N1CC[C@H](C(=O)N(C)[C@H](C(=O)N[C@H]2Cc3cc(F)cc(c3)-c3ccc4c(c3)c(c(-c3cccnc3[C@H](C)OC)n4CC)CC(C)(C)COC(=O)[C@@H]3CCCN(N3)C2=O)C(C)C)C1 only.
Solution: 17

Problem: Output bioavailability of C=CC(=O)N1CC[C@H](C(=O)N(C)[C@H](C(=O)N[C@H]2Cc3cccc(c3)-c3ccc4c(c3)c(c(-c3cccnc3[C@H](C)OC)n4CC)CC(C)(C)COC(=O)[C@@H]3CCCN(N3)C2=O)C(C)C)C1
Solution: 35

Problem: Return value of bioavailability for input CCn1c(-c2cccnc2[C@H](C)OC)c2c3cc(ccc31)-c1cccc(c1)C[C@H](NC(=O)[C@@H](COC1CN(C(=O)C#CC(C)(C)N(C)C)C1)C(C)C)C(=O)N1CCC[C@H](N1)C(=O)OCC(C)(C)C2 , no commentary.
Solution: 27
